Test system: Pseudomonas aeruginosa
protocol.details: MIC against Gram-negative bacteria: Pseudomonas aeruginosa
Assay type: cell-based
reported.conditions: P. aeruginosa; 10 h cultivation at 37° C.
Form field: MIC (one value per entry).
Answer with a number only, understood to be in µg/mL.

Solved cases below.
Report measured MIC; entry is PRT958 (DVDECSIGANPCEHLGRCVNTQGSFLCQCGRGYTGPRCE; listed as Homo sapiens)
25

Report measured MIC; entry is PRT1035 (HRAKCAPSYLFSCFNGGECVHPAFCDCRRFNATGPRCQ; listed as Homo sapiens)
12.5

Report measured MIC; entry is PRT907 (PSVSCEVAAQRQGVDVARLCQHGGLCVDAGNTHHCRCQAGYTGSYCE; listed as Homo sapiens)
12.5

Report measured MIC; entry is PRT902 (DIDDCRPNPCHNGGSCTDGINTAFCDCLPGFRGTFCE; listed as Homo sapiens)
12.5

Report measured MIC; entry is PRT962 (NVDDCSPDPCHHGRCVDGIASFSCACAPGYTGTRCE; listed as Homo sapiens)
25

Report measured MIC; entry is PRT1016 (RAGPCPPRGCSNGGTCQLMPEKDSTFHLCLCPPGFIGPDCE; listed as Homo sapiens)
50

Next:
Report measured MIC; entry is PRT1014 (LRDFCSANPCVNGGVCLATYPQIQCHCPPGFEGHACE; listed as Homo sapiens)
50

Report measured MIC; entry is PRT1040 (AAHPCVRAPCAHGGSCRPRKEGYDCDCPLGFEGLHCQ; listed as Homo sapiens)
50

###

System: Moraxella catarrhalis
protocol.details: MIC against Gram-negative bacteria: Moraxella catarrhalis
Type: cell-based
reported.conditions: M. catarrhalis; 10 h cultivation at 37° C.; 5×10^5 CFU/mL
Protocol: 1. Gram-negative bacteria, such as E. coli BL21, Pseudomonas aeruginosa, Klebsiella pneumonia, Enterobacter cloacae, Aeromonas hydrophila, Citrobacter diversus, Moraxella catarrhalis, Proteus mirabilis, Proteus vulgaris, Serratia marcescens, etc were streaked on solid LB medium and cultured respectively. Then, typical clones were picked, inoculated into common liquid LB medium respectively, and cultured at 37° C. with shaking at 185 rpm until the McFarland specific turbidity was 0.5. […]
measured.parameter: MIC (μg/mL) M. catarrhalis (µg/mL)
Answer with a number only, understood to be in µg/mL.

Solved cases below.
Give MIC (μg/mL) M. catarrhalis only, for PRT774 (LTLRCDYYGCNQTADDCLNGLACDCKSDLQRPNPQSPFCV; listed as Homo sapiens) , using Moraxella catarrhalis data.
12.5

Give MIC (μg/mL) M. catarrhalis only, for PRT842 (CGCSFHSHCRKRGPGFCDECQDWTWGEHCERCRPGSFGNATGSRGCRP; listed as Homo sapiens) , using Moraxella catarrhalis data.
25

Give MIC (μg/mL) M. catarrhalis only, for PRT229 (DINECLTSSVCPEHSDCVNSMGSYSCSCQVGFISRNSTCE; listed as Homo sapiens) , using Moraxella catarrhalis data.
12.5

Give MIC (μg/mL) M. catarrhalis only, for PRT163 (EYNECLSAPCLNAATCRDLVNGYECVCLAEYKGTHCE; listed as Homo sapiens) , using Moraxella catarrhalis data.
25

Give MIC (μg/mL) M. catarrhalis only, for PRT173 (CSSSPCSNGAKCVDLGDAYLCRCQAGFSGRHC; listed as Homo sapiens) , using Moraxella catarrhalis data.
50

Next:
Give MIC (μg/mL) M. catarrhalis only, for PRT754 (IQDLCAMEDHNCEQLCVNVPGSFVCQCYSGYALAEDGKRCV; listed as Homo sapiens) , using Moraxella catarrhalis data.
25

Give MIC (μg/mL) M. catarrhalis only, for PRT748 (YTASCQPWSCSGHGECVEIINNYTCNCDVGYYGPQCQ; listed as Homo sapiens) , using Moraxella catarrhalis data.
12.5

Give MIC (μg/mL) M. catarrhalis only, for PRT825 (FGPNCTHVCGCGQGAACDPVTGTCLCPPGRAGVRCE; listed as Homo sapiens) , using Moraxella catarrhalis data.
50

Give MIC (μg/mL) M. catarrhalis only, for PRT220 (DINECETTNECREDEMCWNYHGGFRCYPRNPCQDPYILTPENRCV; listed as Homo sapiens) , using Moraxella catarrhalis data.
12.5

Give MIC (μg/mL) M. catarrhalis only, for PRT828 (HGAGCQGLCWCQHGAPCDPISGRCLCPAGFHGHFCE; listed as Homo sapiens) , using Moraxella catarrhalis data.
50

Give MIC (μg/mL) M. catarrhalis only, for PRT158 (PGESHANDLECSGKGKCTTKPSEATFSCTCEEQYVGTFCE; listed as Homo sapiens) , using Moraxella catarrhalis data.
25

Give MIC (μg/mL) M. catarrhalis only, for PRT169 (CIRYPGCLHGTCQQPWQCNCQEGWGGLFC; listed as Homo sapiens) , using Moraxella catarrhalis data.
25

###

System: Pseudomonas aeruginosa
protocol.details: MIC against Gram-negative bacteria: Pseudomonas aeruginosa
Type: cell-based
reported.conditions: Pseudomonas aeruginosa; 96-well plate, 5×10^5 CFU/mL, 37° C., 10 h
Form field: MIC against P. aeruginosa (one value per entry).
Answer with a number only, understood to be in µg/mL.

Report measured MIC against P. aeruginosa; entry is PRT1234 (LASGCPWMCSGRGICDAGRCVCDRGFGGPYCV; listed as Homo sapiens)
12.5

Report measured MIC against P. aeruginosa; entry is PRT1333 (PIPECAALLCPENSRCSPSTEDENKLECKCLPNYRGDGKYCD; listed as Homo sapiens)
25

Report measured MIC against P. aeruginosa; entry is PRT1290 (KCNPCLSNPCKNDGTCNSDPVDFYRCTCPYGFKGQDCD; listed as Homo sapiens)
50

Report measured MIC against P. aeruginosa; entry is PRT1252 (CPLTCDDISGQVTCPPDWPCGSPGCWCPEGQVLGSEGWCV; listed as Homo sapiens)
25

Report measured MIC against P. aeruginosa; entry is PRT1256 (DVDECQDNNGGCQQICVNAMGSYECQCHSGFFLSDNQ; listed as Homo sapiens)
25

Now for a further substance.
Report measured MIC against P. aeruginosa; entry is PRT1338 (EMDPCTGLTPGGCSRNAECIKTGTGTHTCVCQQGWTGNGRDCS; listed as Homo sapiens)
12.5

###

Test system: Pseudomonas aeruginosa
protocol.details: MIC against Gram-negative bacteria: Pseudomonas aeruginosa
Format: cell-based
reported.conditions: P. aeruginosa; 10 h cultivation at 37° C.; 5×10^5 CFU/mL
measured.parameter: MIC (μg/mL) P. aeruginosa

Solved cases below.
Report measured MIC (μg/mL) P. aeruginosa; entry is PRT790 (HGPQCEQRCPCQNGGVCHHVTGECSCPSGWMGTVCG; listed as Homo sapiens)
25 µg/mL

Report measured MIC (μg/mL) P. aeruginosa; entry is PRT872 (CKCNLHANLCSMREGSLQCECEHNTTGPDCGKCKKNFRTRSWRAGSYLPLPHGSPNACAT; listed as Homo sapiens)
25 µg/mL

Report measured MIC (μg/mL) P. aeruginosa; entry is PRT227 (KGNNCRDSTLCPAYATCTNTVDSYYCACKQGFLSSNGQNHFKDPGVRCK; listed as Homo sapiens)
12.5 µg/mL

Next:
Report measured MIC (μg/mL) P. aeruginosa; entry is PRT197 (LGYDCTTDKCNDRGVCNNKKHCHCSASYLPPDCS; listed as Homo sapiens)
50 µg/mL

Report measured MIC (μg/mL) P. aeruginosa; entry is PRT265 (CQDGHGGCSEHANCSQVGTMVTCTCLPDYEGDGWSC; listed as Homo sapiens)
25 µg/mL

###

Test system: Proteus vulgaris
protocol.details: MIC against Gram-negative bacteria: Proteus vulgaris
Format: cell-based
reported.conditions: P. vulgaris; 10 h cultivation at 37° C.; 5×10^5 CFU/mL
Form field: MIC (μg/mL) P. vulgaris (one value per entry).
Please answer using a numeric value trailed by its unit.

Give MIC (μg/mL) P. vulgaris only, for PRT762 (ALDPCVLGTHQCQHVCISDGEGKHHCECSQGYTLNADKKTCS; listed as Homo sapiens) , using Proteus vulgaris data.
25 µg/mL

Give MIC (μg/mL) P. vulgaris only, for PRT791 (SQECQCHNGGTCDAATGQCHCSPGYTGERCQ; listed as Homo sapiens) , using Proteus vulgaris data.
12.5 µg/mL

Give MIC (μg/mL) P. vulgaris only, for PRT754 (IQDLCAMEDHNCEQLCVNVPGSFVCQCYSGYALAEDGKRCV; listed as Homo sapiens) , using Proteus vulgaris data.
50 µg/mL

Give MIC (μg/mL) P. vulgaris only, for PRT250 (DVDECRTSITLCSHHCFNTAGSFTCGCPHDLVLGVDGRTCM; listed as Homo sapiens) , using Proteus vulgaris data.
25 µg/mL

Next:
Give MIC (μg/mL) P. vulgaris only, for PRT865 (CSCHPVGSAVLPANSVTFCDPSNGDCPCKPGVAGRRCDRCMVGYWGFGDYGCRP; listed as Homo sapiens) , using Proteus vulgaris data.
12.5 µg/mL

Give MIC (μg/mL) P. vulgaris only, for PRT240 (NINECEVEPCKNGGICTDLVANYSCECPGEFMGRNCQ; listed as Homo sapiens) , using Proteus vulgaris data.
100 µg/mL

Give MIC (μg/mL) P. vulgaris only, for PRT218 (DINECDASNQCAQQCYNILGSFICQCNQGYELSSDRLNCE; listed as Homo sapiens) , using Proteus vulgaris data.
50 µg/mL

Give MIC (μg/mL) P. vulgaris only, for PRT156 (DINECDSNPCHHGGSCLDQPNGYNCHCPHGWVGANCE; listed as Homo sapiens) , using Proteus vulgaris data.
50 µg/mL

Give MIC (μg/mL) P. vulgaris only, for PRT872 (CKCNLHANLCSMREGSLQCECEHNTTGPDCGKCKKNFRTRSWRAGSYLPLPHGSPNACAT; listed as Homo sapiens) , using Proteus vulgaris data.
50 µg/mL

Give MIC (μg/mL) P. vulgaris only, for PRT170 (CTHHKPCKNGATCTNTGQGSYTCSCRPGYTGATC; listed as Homo sapiens) , using Proteus vulgaris data.
25 µg/mL

Give MIC (μg/mL) P. vulgaris only, for PRT780 (EYSSCSRHPCQNGGTCINGRTSFTCACRHPFTGDNCT; listed as Homo sapiens) , using Proteus vulgaris data.
50 µg/mL

Give MIC (μg/mL) P. vulgaris only, for PRT816 (WGPDCSHPCNCSAGHGSCDAISGLCLCEAGYVGPRCE; listed as Homo sapiens) , using Proteus vulgaris data.
25 µg/mL

Give MIC (μg/mL) P. vulgaris only, for PRT189 (SIDACASSPCFNRATCYTDLSTDTFVCNCPYGFVGSRCE; listed as Homo sapiens) , using Proteus vulgaris data.
50 µg/mL

Give MIC (μg/mL) P. vulgaris only, for PRT782 (AERCDCSHADGCHPTTGHCRCLPGWSGVHCD; listed as Homo sapiens) , using Proteus vulgaris data.
12.5 µg/mL

Give MIC (μg/mL) P. vulgaris only, for PRT750 (DIDECQVAPGEAPTCDHHCHNHLGGFYCSCRAGYVLHRNKRTCS; listed as Homo sapiens) , using Proteus vulgaris data.
12.5 µg/mL

Give MIC (μg/mL) P. vulgaris only, for PRT748 (YTASCQPWSCSGHGECVEIINNYTCNCDVGYYGPQCQ; listed as Homo sapiens) , using Proteus vulgaris data.
12.5 µg/mL
